From: patent US20230212152A1

SUBJECT_OF_TEST: 229E Mpro (Human coronavirus 229E)
Construct: 229E Mpro
Sequence (P0C6X1 2966-3267): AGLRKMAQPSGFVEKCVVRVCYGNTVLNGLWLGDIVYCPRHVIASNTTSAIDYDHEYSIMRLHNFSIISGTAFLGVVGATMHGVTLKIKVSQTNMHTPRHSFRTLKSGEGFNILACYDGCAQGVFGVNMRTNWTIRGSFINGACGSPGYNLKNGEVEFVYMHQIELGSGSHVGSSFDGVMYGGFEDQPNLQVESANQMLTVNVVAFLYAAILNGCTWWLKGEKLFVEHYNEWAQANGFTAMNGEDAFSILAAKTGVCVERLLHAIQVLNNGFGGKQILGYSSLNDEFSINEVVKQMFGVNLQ
ASSAY_INFO: 229E Mpro assay (Table 3)
Assay type: biochemical, HCoV 229E
EXPERIMENTAL_CONTEXT: 229E Mpro EC50
MEASUREMENT_LABEL: EC50

INSERT INTO assay_data (compound, val) VALUES
  ('CC(C)(C)[C@H](NC(=O)C(F)(F)F)C(=O)N1C[C@H]2[C@@H]([C@H]1C(=O)N[C@H](C#N)C[C@@H]1CCCNC1=O)C2(C)C [Compound 3133]', '< 2 µM'),
  ('N#CC(CC1CCNC1=O)NC(=O)C1CCc2ccc(NCC(=O)Oc3ccccc3)c(=O)n21 (single isomer, unassigned) [483 (Isomer 2)]', '> 30 µM'),
  ('CC1(C)C[C@@H](C[C@@H](C#N)NC(=O)[C@@H]2[C@@H]3[C@H](CN2C(=O)[C@@H](NC(=O)C(F)(F)F)C(C)(C)C)C3(C)C)C(=O)N1 [Compound 3075]', '10 to 30 µM'),
  ('CC(C)(C)C[C@H](NC(=O)[C@@H](NC(=O)C(F)(F)F)C(C)(C)C)C(=O)N[C@H](C#N)C[C@@H]1CC(C)(C)NC1=O [Compound 3069]', '> 30 µM'),
  ('CC1(C)C[C@@H](C[C@@H](C#N)NC(=O)C2CC3(CCC3)CN2C(=O)[C@@H](NC(=O)C(F)(F)F)C(C)(C)C)C(=O)N1 (single isomer, unassigned) [3071a (Isomer 1)]', '2 to 10 µM');
